// data source = ChEMBL document CHEMBL3414428

Each entry below lists one item and its recorded selectivity ratio value.
- Assay Protocol: Selectivity ratio of IC50 for mouse J774 cells to IC50 for epimastigote stage of Trypanosoma cruzi CL-B5
- Assay type: ADME, cell-based
- Experimental Conditions: J774 cells versus Trypanosoma cruzi CL-B5 epimastigotes, read-out: Ratio IC50
# print the numeric value only

Please review the entries below; each comes with its answer.
INSERT INTO results (compound, experimental_value) VALUES
  ('COC(=O)c1cc(O)ccc1O [METHYL 2,5-DIHYDROXYBENZOATE]', 2.6),
  ('COc1ccc(OC)c(CCc2ccccc2)c1', 5.5),
  ('Oc1ccc(O)cc1 [HYDROQUINONE]', 6.3),
  ('Oc1ccc(CCc2ccccc2)cc1', 3.3);

We next turn to a different compound, shown below.
Please indicate selectivity ratio recorded for "Oc1ccc(CCc2cccc(O)c2)cc1"
3.4
